Cited source for all entries: patent US20150337042A1

molecular target: T1, EGFRvIII extracellular domain (EGFR (1-29)-G-(298-645)-LESRGPF-Myc-NMHTG-6His) (human, UniProt P00533 298-641); experiment: SPR (Biacore), antibody captured via anti-human Fc, antigen injected
T1 construct: also called recombinant EGFRvIII; not shown: Myc tag
REPORTED ENDPOINT: KD ratio (Ab1/variant Ab)
No unit in the answer, please; the number alone is enough.

Antibody G (AbG) (antibody, V domains shown, Full length IgG1) VH: EVQLQESGPGLVKPSQTLSLTCTVSGYSISNDFAWNWIRQLPGKGLEWMGYISYKGNTRYQPSLKSRITISRDTSKNQFFLKLNSVTAADTATYYCVTASRGLPYWGQGTLVTVSS VL: DIQMTQSPSSMSVSVGDRVTITCHSSQDITYNIGWLQQKPGKSFKGLIYHGANLDDGVPSRFSGSGSGTDYTLTISSLQPEDFATYYCVQYDEFPWTFGGGTKLEIK : 47.2

Entry Antibody K (AbK) (antibody, V domains shown, Full length IgG1) VH: EVQLQESGPGLVKPSQTLSLTCTVSGYSISRDFAWNWIRQPPGKGLEWMGYISYNGNTRYQPSLKSRITISRDTSKNQFFLKLNSVTAADTATYYCVTASRGFPWWGQGTLVTVSS VL: DIQMTQSPSSMSVSVGDRVTITCHSSQDITYNVGWLQQKPGKSFKGLIYHGSNLDHGVPSRFSGSGSGTDYTLTISSLQPEDFATYYCVQYDDFPWTFGGGTKLEIK : reported KD ratio (Ab1/variant Ab) = ?
15.8
